study_system: Protein-serine O-palmitoleoyltransferase porcupine (Mus musculus, UniProt Q9JJJ7)
Sequence (Q9JJJ7 whole entry): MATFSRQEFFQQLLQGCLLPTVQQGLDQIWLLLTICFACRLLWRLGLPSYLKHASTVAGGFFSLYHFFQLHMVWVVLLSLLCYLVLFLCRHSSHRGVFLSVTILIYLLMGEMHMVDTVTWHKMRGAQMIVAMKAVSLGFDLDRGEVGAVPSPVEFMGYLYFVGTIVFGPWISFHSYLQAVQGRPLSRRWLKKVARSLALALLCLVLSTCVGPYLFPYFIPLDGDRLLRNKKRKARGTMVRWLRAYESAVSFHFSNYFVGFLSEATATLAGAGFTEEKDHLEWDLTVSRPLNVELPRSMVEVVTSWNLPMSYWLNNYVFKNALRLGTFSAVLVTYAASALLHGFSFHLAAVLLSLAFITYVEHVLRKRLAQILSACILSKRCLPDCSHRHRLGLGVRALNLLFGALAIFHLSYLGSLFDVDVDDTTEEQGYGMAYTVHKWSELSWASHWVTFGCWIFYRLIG
assay_procedure: Inhibition of porcupine-mediated Wnt signaling in mouse L-cells after 24 hrs by springerImage-Topflash reporter assay
pEC50: −log10 of the molar value.

[
  {
    "compound": "O=C(Cn1nnc(-c2ccncc2)c1-c1ccccc1)Nc1ncc(-c2ccccc2)cn1",
    "bound_sign": "=",
    "pEC50": 8.10
  },
  {
    "compound": "O=C(Cn1nnc(-c2ccccn2)c1-c1ccccc1)Nc1ccc(-c2ccccc2)cn1",
    "bound_sign": "=",
    "pEC50": 5.60
  },
  {
    "compound": "O=C(Cn1nnc(-c2ccncc2)c1-c1ccccc1)Nc1ccc(-c2cccnc2)cn1",
    "bound_sign": "<",
    "pEC50": 6.00
  },
  {
    "compound": "O=C(Cn1nnc(-c2ccncc2)c1-c1ccccc1)Nc1ccc(-c2ccccn2)cc1",
    "bound_sign": "=",
    "pEC50": 8.74
  },
  {
    "compound": "O=C(Cn1nnc(-c2ccncc2)c1-c1ccccc1)Nc1ccc(-c2ccsc2)cn1",
    "bound_sign": "=",
    "pEC50": 9.19
  },
  {
    "compound": "O=C(Cn1nnc(-c2ccncc2)c1-c1ccccc1)Nc1ccc(-c2cncnc2)cn1",
    "bound_sign": "=",
    "pEC50": 8.74
  },
  {
    "compound": "O=C(Cn1cc(-c2cccnc2)nn1)Nc1ccc(-c2ccccc2)cn1",
    "bound_sign": "=",
    "pEC50": 7.00
  },
  {
    "compound": "O=C(Cn1nnc(-c2ccccc2C(F)(F)F)c1-c1ccccc1)Nc1ccc(-c2ccccc2)cn1",
    "bound_sign": "=",
    "pEC50": 6.30
  },
  {
    "compound": "O=C(Cn1nnc(-c2ccnc(F)c2)c1-c1ccccc1)Nc1ccc(-c2ccccc2)cn1",
    "bound_sign": "=",
    "pEC50": 9.89
  },
  {
    "compound": "CCOC(=O)c1ccc(-c2c(-c3ccncc3)nnn2CC(=O)Nc2ccc(-c3ccccc3)cn2)cc1",
    "bound_sign": "=",
    "pEC50": 9.15
  },
  {
    "compound": "Cc1cc(-c2nnn(CC(=O)Nc3ccc(-c4ccccc4)cn3)c2-c2ccccc2)ccn1",
    "bound_sign": "=",
    "pEC50": 9.85
  },
  {
    "compound": "O=C(Cn1nnc(-c2ccncc2)c1-c1ccccc1)Nc1ccc(-c2ccccc2)cn1",
    "bound_sign": "=",
    "pEC50": 10.10
  },
  {
    "compound": "O=C(Cn1nnc(-c2ccncc2)c1-c1ccccc1)Nc1ccc(N2CCCCC2)cc1",
    "bound_sign": "=",
    "pEC50": 8.10
  },
  {
    "compound": "O=C(Cn1nnc(-c2ccncc2)c1-c1ccccc1)Nc1ccc(N2CCCCC2)cn1",
    "bound_sign": "<",
    "pEC50": 6.00
  },
  {
    "compound": "O=C(Cn1nnc(-c2ccncc2)c1-c1ccc(C(F)(F)F)cc1)Nc1ccc(-c2ccccc2)cn1",
    "bound_sign": "=",
    "pEC50": 9.52
  },
  {
    "compound": "CCC(C(=O)Nc1ccc(-c2ccccc2)cn1)n1nnc(-c2ccncc2)c1-c1ccccc1 (centres undefined)",
    "bound_sign": "=",
    "pEC50": 7.92
  },
  {
    "compound": "O=C(Cn1nnc(-c2ccncc2)c1-c1ccc(F)cc1)Nc1ccc(-c2ccccc2)cn1",
    "bound_sign": "=",
    "pEC50": 9.70
  },
  {
    "compound": "O=C(Cn1nnc(-c2ccncc2)c1-c1ccccc1)Nc1cccc(-c2ccccc2)c1",
    "bound_sign": "=",
    "pEC50": 6.57
  },
  {
    "compound": "O=C(Cn1cc(-c2ccccc2)nn1)Nc1ccc(-c2ccccc2)cn1",
    "bound_sign": "<",
    "pEC50": 5.30
  }
]

* * *

study_system: Protein-serine O-palmitoleoyltransferase porcupine (Mus musculus, UniProt Q9JJJ7)
assay_procedure: Inhibition of porcupine-mediated Wnt signaling in mouse L-cells after 24 hrs by springerImage-Topflash reporter assay
EC50 less than 0.6 nM is Condition met; EC50 greater than or equal to 0.6 nM is Condition not met.

[
  {
    "compound": "COc1ccc(-c2c(-c3ccncc3)nnn2CC(=O)Nc2ccc(-c3ccccc3)cn2)cc1",
    "study_system": "Protein-serine O-palmitoleoyltransferase porcupine (Mus musculus, UniProt Q9JJJ7)",
    "class_name": "Condition met"
  },
  {
    "compound": "N#Cc1ccc(-c2c(-c3ccncc3)nnn2CC(=O)Nc2ccc(-c3ccccc3)cn2)cc1",
    "study_system": "Protein-serine O-palmitoleoyltransferase porcupine (Mus musculus, UniProt Q9JJJ7)",
    "class_name": "Condition met"
  },
  {
    "compound": "O=C(Cn1nnc(-c2ccncc2)c1-c1cccc2ccccc12)Nc1ccc(-c2ccccc2)cn1",
    "study_system": "Protein-serine O-palmitoleoyltransferase porcupine (Mus musculus, UniProt Q9JJJ7)",
    "class_name": "Condition not met"
  },
  {
    "compound": "Cc1ccccc1-c1c(-c2ccncc2)nnn1CC(=O)Nc1ccc(-c2ccccc2)cn1",
    "study_system": "Protein-serine O-palmitoleoyltransferase porcupine (Mus musculus, UniProt Q9JJJ7)",
    "class_name": "Condition not met"
  },
  {
    "compound": "O=C(Cn1cc(-c2ccncc2)nn1)Nc1ccc(-c2ccccc2)cn1",
    "study_system": "Protein-serine O-palmitoleoyltransferase porcupine (Mus musculus, UniProt Q9JJJ7)",
    "class_name": "Condition not met"
  },
  {
    "compound": "COc1ccc(-c2nnn(CC(=O)Nc3ccc(-c4ccccc4)cn3)c2-c2ccccc2)cc1",
    "study_system": "Protein-serine O-palmitoleoyltransferase porcupine (Mus musculus, UniProt Q9JJJ7)",
    "class_name": "Condition not met"
  },
  {
    "compound": "O=C(Cn1nnc(-c2ccncc2)c1-c1ccccc1)Nc1ccc(-c2ccncc2)cc1",
    "study_system": "Protein-serine O-palmitoleoyltransferase porcupine (Mus musculus, UniProt Q9JJJ7)",
    "class_name": "Condition not met"
  },
  {
    "compound": "O=C(Cn1nnc(-c2ccncc2)c1-c1ccccc1)Nc1ccc(-c2cccnc2)cc1",
    "study_system": "Protein-serine O-palmitoleoyltransferase porcupine (Mus musculus, UniProt Q9JJJ7)",
    "class_name": "Condition not met"
  },
  {
    "compound": "O=C(Cn1nnc(-c2ccncc2)c1-c1ccccc1)Nc1ncc(-c2ccccc2)s1",
    "study_system": "Protein-serine O-palmitoleoyltransferase porcupine (Mus musculus, UniProt Q9JJJ7)",
    "class_name": "Condition not met"
  },
  {
    "compound": "O=C(Cn1nnc(-c2ccncc2)c1-c1ccccc1)Nc1ccc(-c2ccco2)cn1",
    "study_system": "Protein-serine O-palmitoleoyltransferase porcupine (Mus musculus, UniProt Q9JJJ7)",
    "class_name": "Condition met"
  },
  {
    "compound": "O=C(Cn1nnc(-c2ccccc2)c1-c1ccccc1)Nc1ccc(-c2ccccc2)cn1",
    "study_system": "Protein-serine O-palmitoleoyltransferase porcupine (Mus musculus, UniProt Q9JJJ7)",
    "class_name": "Condition not met"
  },
  {
    "compound": "O=C(Cn1nnc(-c2cccnc2)c1-c1ccccc1)Nc1ccc(-c2ccccc2)cn1",
    "study_system": "Protein-serine O-palmitoleoyltransferase porcupine (Mus musculus, UniProt Q9JJJ7)",
    "class_name": "Condition not met"
  },
  {
    "compound": "O=C(Cn1nnc(-c2ccncc2)c1-c1ccccc1)Nc1ccc(-c2ccccc2)nc1",
    "study_system": "Protein-serine O-palmitoleoyltransferase porcupine (Mus musculus, UniProt Q9JJJ7)",
    "class_name": "Condition met"
  },
  {
    "compound": "CC(C(=O)Nc1ccc(-c2ccccc2)cn1)n1nnc(-c2ccncc2)c1-c1ccccc1 (centres undefined)",
    "study_system": "Protein-serine O-palmitoleoyltransferase porcupine (Mus musculus, UniProt Q9JJJ7)",
    "class_name": "Condition not met"
  },
  {
    "compound": "COc1ccccc1-c1c(-c2ccncc2)nnn1CC(=O)Nc1ccc(-c2ccccc2)cn1",
    "study_system": "Protein-serine O-palmitoleoyltransferase porcupine (Mus musculus, UniProt Q9JJJ7)",
    "class_name": "Condition not met"
  },
  {
    "compound": "O=C(Cn1cc(-c2ccccn2)nn1)Nc1ccc(-c2ccccc2)cn1",
    "study_system": "Protein-serine O-palmitoleoyltransferase porcupine (Mus musculus, UniProt Q9JJJ7)",
    "class_name": "Condition not met"
  },
  {
    "compound": "Cc1cccc(-c2c(-c3ccncc3)nnn2CC(=O)Nc2ccc(-c3ccccc3)cn2)c1",
    "study_system": "Protein-serine O-palmitoleoyltransferase porcupine (Mus musculus, UniProt Q9JJJ7)",
    "class_name": "Condition met"
  }
]

From: ChEMBL document CHEMBL3870337
